- target_under_test: human MDM2 (GST-hMDM2 1-188), interaction with biotinylated-p53 (1-83) (Homo sapiens, UniProt Q00987)
- Construct: Amino acid residues 1-188 of human MDM2 were expressed
- Sequence (Q00987 1-188): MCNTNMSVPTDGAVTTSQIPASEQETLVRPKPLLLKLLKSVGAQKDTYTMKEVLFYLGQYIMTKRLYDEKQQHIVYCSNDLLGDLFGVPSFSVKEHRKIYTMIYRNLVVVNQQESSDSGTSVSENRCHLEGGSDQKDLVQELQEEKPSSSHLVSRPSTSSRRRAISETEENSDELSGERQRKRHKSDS
- run_description: improved HTRF assay (HTRF2 assay), inhibition of HDM2-p53 interaction
- test_parameters: 0.2 nM GST-hMDM2, 0.5 nM biotinylated-p53, 100 mM KF
I'd appreciate it if you could supply IC50 values for the items below.
Quick note: give the figure in nM, leave out the unit.

INPUT: Please look up its IC50: CC(C)(C)S(=O)(=O)C[C@H](C1CC1)N1C(=O)[C@@H](CC(=O)O)O[C@H](c2ccc(F)c(Cl)c2)[C@H]1c1ccc(Cl)cc1 (single isomer, unassigned) [Example 321]
OUTPUT: 2

INPUT: Another molecule to look at: CC[C@@H](CS(=O)(=O)C(C)(C)C)N1C(=O)[C@@H](CC(=O)O)O[C@H](c2cc(F)cc(Cl)c2)[C@H]1c1ccc(Cl)c(F)c1 (single isomer, unassigned) [Example 426]
OUTPUT: 1

INPUT: Quick one: CC(C)[C@H](CN(c1ccccc1)S(=O)(=O)C1CC1)N1C(=O)[C@@H](CC(=O)O)O[C@H](c2cccc(Cl)c2)[C@H]1c1ccc(Cl)cc1 (single isomer, unassigned)
OUTPUT: 32

----------
- target_under_test: human MDM2 (GST-hMDM2 1-188), interaction with biotinylated-p53 (1-83) (Homo sapiens, UniProt Q00987)
- Construct: Amino acid residues 1-188 of human MDM2 were expressed
- run_description: improved HTRF assay (HTRF2 assay), inhibition of HDM2-p53 interaction
- test_parameters: 0.2 nM GST-hMDM2, 0.5 nM biotinylated-p53, 100 mM KF
assay_readout: pIC50
Please keep in mind that pIC50 is minus log10 of the molar concentration; only the number is needed.

INPUT: Data request, read-out pIC50, for CC[C@@H](CS(=O)(=O)C(C)(C)C)N1C(=O)[C@@H](CC(=O)O)O[C@H](c2cccc(Cl)c2)[C@H]1c1ccc(Cl)s1 (single isomer, unassigned) [Example 218]
OUTPUT: 9.00

INPUT: Record: C[C@@H](CS(=O)(=O)C(C)(C)C)N1C(=O)[C@@H](CC(N)=O)O[C@H](c2cccc(Cl)c2)[C@H]1c1ccc(Cl)cc1 (single isomer, unassigned)
OUTPUT: 8.22

INPUT: One more compound: CC[C@@H](CS(=O)(=O)C(C)(C)C)N1C(=O)[C@@H](CNC(C)=O)O[C@H](c2cccc(Cl)c2)[C@H]1c1ccc(Cl)cc1 (single isomer, unassigned) [Example 379]
OUTPUT: 7.09

INPUT: What about CC[C@@H](CN(c1ccccc1F)S(=O)(=O)C1CC1)N1C(=O)[C@@H]([C@@H](C)C(=O)O)O[C@H](c2cccc(Cl)c2)[C@H]1c1ccc(Cl)cc1 (single isomer, unassigned) [Example 254] ?
OUTPUT: 9.00

INPUT: Try this compound too: CC(C)(C)S(=O)(=O)C[C@H](C1CC1)N1C(=O)[C@@H](CC#N)O[C@H](c2cccc(Cl)c2)[C@H]1c1ccc(Cl)cc1 (single isomer, unassigned) [Example 388]
OUTPUT: 7.55

INPUT: Next compound up: CC[C@@H](CS(=O)(=O)C(C)C)N1C(=O)[C@H](CC(=O)O)O[C@H](c2cc(F)cc(Cl)c2)[C@H]1c1ccc(Cl)cc1 (single isomer, unassigned)
OUTPUT: 7.96

INPUT: CC[C@@H](CS(=O)(=O)N1CCC[C@H]1C)N1C(=O)[C@@H](CC(=O)O)O[C@H](c2cccc(Cl)c2)[C@H]1c1ccc(Cl)cc1 (single isomer, unassigned) [Example 210] ?
OUTPUT: 9.00

INPUT: Ok, now CC[C@@H]([C@H](C)S(=O)(=O)C(C)C)N1C(=O)[C@@H](CC(=O)O)O[C@H](c2cccc(Cl)c2)[C@H]1c1ccc(Cl)cc1 (single isomer, unassigned) [Example 414]
OUTPUT: 9.00

INPUT: Lookup C[C@@H](CS(=O)(=O)C(C)(C)C)N1C(=O)[C@H](CC(=O)NO)O[C@H](c2cccc(Cl)c2)[C@H]1c1ccc(Cl)cc1 (single isomer, unassigned)
OUTPUT: 8.10

INPUT: What about this compound? CC(C)S(=O)(=O)[C@H]1CCC[C@@H]1N1C(=O)[C@@H](CC(=O)O)O[C@H](c2cccc(Cl)c2)[C@H]1c1ccc(Cl)cc1 (single isomer, unassigned) [Example 422]
OUTPUT: 8.52

These measurements were taken from patent US9376425B2.
